- ASSAY_SYSTEM: T1, human MASP-3 (construct not stated) (human)
- T1 construct: also called MASP-3 antigen
- T1 chain: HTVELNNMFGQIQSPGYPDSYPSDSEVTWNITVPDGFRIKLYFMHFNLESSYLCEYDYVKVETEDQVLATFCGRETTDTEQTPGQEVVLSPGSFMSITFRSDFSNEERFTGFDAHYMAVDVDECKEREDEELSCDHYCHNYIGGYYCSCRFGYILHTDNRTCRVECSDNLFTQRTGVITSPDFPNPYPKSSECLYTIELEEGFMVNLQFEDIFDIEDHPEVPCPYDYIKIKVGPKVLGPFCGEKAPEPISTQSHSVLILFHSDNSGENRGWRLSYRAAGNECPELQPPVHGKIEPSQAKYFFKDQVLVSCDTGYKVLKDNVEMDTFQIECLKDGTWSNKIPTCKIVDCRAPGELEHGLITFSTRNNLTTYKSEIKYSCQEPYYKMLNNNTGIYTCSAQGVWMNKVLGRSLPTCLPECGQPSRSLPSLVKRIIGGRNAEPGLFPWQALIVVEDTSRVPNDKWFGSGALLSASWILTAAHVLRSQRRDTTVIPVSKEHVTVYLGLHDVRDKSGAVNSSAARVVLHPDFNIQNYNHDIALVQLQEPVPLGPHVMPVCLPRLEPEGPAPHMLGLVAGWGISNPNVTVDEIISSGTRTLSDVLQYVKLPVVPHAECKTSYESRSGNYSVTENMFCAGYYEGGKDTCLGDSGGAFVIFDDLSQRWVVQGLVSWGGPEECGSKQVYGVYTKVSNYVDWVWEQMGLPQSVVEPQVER
- TEST_SUMMARY: ELISA, monovalent Fab
EXPERIMENTAL_ENDPOINT: pEC50
Give bare numbers, as −log10 of the molar value.

Some entries whose results are on file:
BINDER | RECORDED_MEASUREMENT
h13B1_10-1-NQ Fab (VH-10 and VL-1-NQ) (Fab, V domains shown, also called 13B1-NQ) VH: QVQLVQSGAEVKKPGASVKVSCKASGYTFTGKWIEWVRQAPGQGLEWIGEILPGTGSTNYNEKFKGRATFTADSSTSTAYMELSSLRSEDTAVYYCLRSEDVWGQGTLVTVSS VL: DIVMTQSPDSLAVSLGERATINCKSSQSLLQSRTRKNYLAWYQQKPGQPPKLLIYWASTRESGVPDRFSGSGSGTDFTLTISSLQAEDVAVYYCKQSYNIPTFGQGTKVEIKR | 9.86
h10D12-45-21-DE Fab (VH-45 and VL-21-DE) (Fab, V domains shown, also called 10D12-DE mutant) VH: QIQLVQSGSELKKPGASVKVSCKASGYIFTSYGMSWVRQAPGKGLKWMGWINTYSGVPTYADDFKGRFVFSLDTSVRTPYLQISSLKAEDTAVYFCARGGEAMDYWGQGTLVTVSS VL: DVLMTQTPLSLSVTPGQPASISCKSSQSLLDSEGKTYLNWLLQRPGQSPKRLIYLVSKLDSGVPDRFSGSGSGTDFTLKISRVEAEDVGVYYCWQGTHFPWTFGQGTKVEIKR | 9.49

// next entry
Query: Quick one: pEC50 for h13B1_10-1-ST Fab (VH-10 and VL-1-ST) (Fab, V domains shown, also called 13B1-ST) VH: QVQLVQSGAEVKKPGASVKVSCKASGYTFTGKWIEWVRQAPGQGLEWIGEILPGTGSTNYNEKFKGRATFTADSSTSTAYMELSSLRSEDTAVYYCLRSEDVWGQGTLVTVSS VL: DIVMTQSPDSLAVSLGERATINCKSSQSLLNTRTRKNYLAWYQQKPGQPPKLLIYWASTRESGVPDRFSGSGSGTDFTLTISSLQAEDVAVYYCKQSYNIPTFGQGTKVEIKR ?
Result: 9.92

Where these numbers come from: patent US20200270125A1
